B1: MYOZ1 (parent)
chain: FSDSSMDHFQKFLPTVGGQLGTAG

# Variants of: B1
# test.name: protein stability index of a GFP-peptide fusion (GPS, HEK-293T) (PSI 1-6); higher = more stable;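 note: lentivirally expressed fusions sorted by FACS into six bins by GFP to DsRed ratio, PSI derived from sequencing read proportions per bin multiplied by bin number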
# conditions.used: c terminus: a fixed tail appended
quantity.measured: protein stability index
Please respond with just the number, no unit label.

G21S : 1.69
T15H : 2.69
G18S : 2.48
S2N : 2.23

// moving on: another record for protein stability index
Recorded protein stability index for S5R , please? 1.05
